Value source: paper PMC6268933

experiment: Cytotoxicity on Vero cells by MTT assay; assay type: cell-based; settings: African green monkey (Cercopitheus aethiops)
value_type: CC50 at 24 h (µM)
Write the value in µM as a bare number.

Problem: Please report the recorded CC50 at 24 h for Oc1ccc([C@H]2c3c(O)cc(O)cc3[C@H]3c4c(cc(O)cc4[C@@H]2[C@H]2c4cc(O)cc5c4[C@H](c4cc(O)cc(O)c4[C@@H]2c2ccc(O)cc2)[C@@H](c2ccc(O)cc2)O5)O[C@@H]3c2ccc(O)cc2)cc1 [Compound 6, (−)-hopeaphenol] .
Result: 161

###

Experiment: DPPH radical scavenging activity (RSA) assay
Assay type: biochemical
Settings: 15 min in the dark at room temperature, 515 nm; mean ± SD (n = 3); read-out: DPPH radical scavenging activities (IC50)
Method: The antioxidant activity of all six compounds was determined by the DPPH radical scavenging method according to the previous procedure with modification. Each compound was diluted two-fold in a series of five starting from 5.00 mg/mL. The solution of DPPH in methanol (6 × 10^−5 M) was prepared daily before UV measurements. […] The mixtures were then kept in the dark for 15 min at room temperature and the decrease in absorption was measured immediately in a UV-Vis spectrophotometer at 515 nm. […]
value_type: IC50 (µM)
Note: unit µM is implicit; provide only the numeric part.

The examples below pair each entry with its known result.
molecule	IC50 (µM)
O=C1O[C@H]([C@@H](O)CO)C(O)=C1O [AscA, ascorbic acid, reference compound]	680
Cc1cc(C(C)(C)C)c(O)c(C(C)(C)C)c1 [BHT, butylated hydroxytoluene, reference compound]	950

Switching to the query record.
Problem: Which IC50 is reported for this molecule? O=C1C=CC23C(C1)Oc1cc(O)cc4c1C2C(c1cc(O)cc2c1C4C(c1ccc(O)cc1)O2)C(c1cc(O)cc2c1C(c1cc(O)cc(O)c1)C(c1ccc(O)cc1)O2)C3c1ccc(O)cc1 (stereo not drawn)
Result: 1540

###

experiment: Cytotoxicity on Vero cells by MTT assay; format: cell-based; details: African green monkey (Cercopitheus aethiops), Vero cells; MTT, 24 h incubation; read-out: Cytotoxic activities on Vero cell lines (LC50)
value_type: CC50 at 24 h (µM)
Answer format: numeric, µM implied, no suffix.

Worked examples follow.
compound	measurement_unit	CC50 at 24 h
Oc1ccc([C@@H]2c3c(O)cc(O)cc3[C@@H]3c4c(cc(O)cc4[C@@H]2O)O[C@H]3c2ccc(O)cc2)cc1 (relative stereo)	µM	400
O=C1O[C@@H]2[C@H](O)COC23O[C@@H](c2ccc(O)cc2)[C@H](c2cc(O)cc4c2[C@@H](c2cc(O)cc(O)c2)[C@H](c2ccc(O)cc2)O4)[C@@]13O (some centres unmarked)	µM	597
Oc1ccc([C@H]2Oc3cc(O)cc4c3[C@@H]2c2cc(O)cc3c2[C@@H](c2cc(O)cc5c2[C@@H]4[C@H](c2ccc(O)cc2)O5)[C@H](c2ccc(O)cc2)O3)cc1 [Compound 3, (+)-α-viniferin]	µM	208

Problem: Query (compound): `Oc1ccc([C@@H]2c3c(O)cc(O)cc3[C@@H]3c4c(cc(O)c5c4[C@@H]2[C@H](c2ccc(O)cc2)[C@H]5c2cc(O)cc4c2[C@@H](c2cc(O)cc(O)c2)[C@H](c2ccc(O)cc2)O4)O[C@H]3c2ccc(O)cc2)cc1` ; field requested: CC50 at 24 h
Result: 759

Problem: What about this compound? O=C1C=CC23C(C1)Oc1cc(O)cc4c1C2C(c1cc(O)cc2c1C4C(c1ccc(O)cc1)O2)C(c1cc(O)cc2c1C(c1cc(O)cc(O)c1)C(c1ccc(O)cc1)O2)C3c1ccc(O)cc1 (centres unmarked)
Result: 830
